- Test system: SK-OV-3 ovarian
- experimental_protocol: NCI tumour cell line growth inhibition, 48 h
property_measured: TGI (µM)

>>> reported_value("Br[Se]c1ccccn1")
34.8
>>> reported_value("CC(=O)CC1CCC(=O)/C=C/C(=O)OC(CC(C)=O)CCC(=O)/C=C/C(=O)O1 (stereo unspecified)")
36.1
>>> reported_value("OC(c1cc(C(F)(F)F)nc2c(C(F)(F)F)cccc12)C1CCCCN1 (stereo unspecified)")
4.32
>>> reported_value("CCOc1ccc(NC2=CC(=O)C(=O)c3ccccc32)cc1")
24.9
>>> reported_value("Cc1cc(Nc2ccc(C)c(Cl)c2)n2nc(C(F)(F)F)nc2n1")
96.7
